# measured.target: T1, IL-7 receptor (IL-7Rα/γc heterodimer) on primary human T cells (human, UniProt P16871 21-459; P31785 23-369)
# T1 sequence (looked up) 1: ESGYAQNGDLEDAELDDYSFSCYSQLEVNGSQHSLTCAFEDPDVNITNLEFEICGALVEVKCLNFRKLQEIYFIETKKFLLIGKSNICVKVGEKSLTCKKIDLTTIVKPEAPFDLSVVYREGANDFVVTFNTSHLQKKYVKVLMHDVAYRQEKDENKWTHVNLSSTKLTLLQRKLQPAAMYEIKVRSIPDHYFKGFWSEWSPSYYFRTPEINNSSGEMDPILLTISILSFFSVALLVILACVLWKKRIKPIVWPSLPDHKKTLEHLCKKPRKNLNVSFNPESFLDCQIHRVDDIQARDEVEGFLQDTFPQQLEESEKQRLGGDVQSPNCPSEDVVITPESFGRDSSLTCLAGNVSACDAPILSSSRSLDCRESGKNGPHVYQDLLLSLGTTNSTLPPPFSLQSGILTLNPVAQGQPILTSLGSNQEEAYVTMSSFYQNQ
# T1 sequence (looked up) 2: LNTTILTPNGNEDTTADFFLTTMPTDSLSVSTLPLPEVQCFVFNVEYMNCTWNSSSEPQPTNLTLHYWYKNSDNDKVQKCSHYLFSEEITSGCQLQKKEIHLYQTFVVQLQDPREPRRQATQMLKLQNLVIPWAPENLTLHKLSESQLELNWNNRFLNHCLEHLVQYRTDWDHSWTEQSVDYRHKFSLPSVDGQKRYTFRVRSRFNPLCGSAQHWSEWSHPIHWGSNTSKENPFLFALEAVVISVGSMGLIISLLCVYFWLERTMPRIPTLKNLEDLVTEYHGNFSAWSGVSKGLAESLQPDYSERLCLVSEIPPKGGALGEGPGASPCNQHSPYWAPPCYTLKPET
# test.summary: cell-based or functional assay
Bridges are numbered along the chain shown (N, C = ends). [ ]: non-standard residue; d: D form. glutaryl‑PEG9‑azide = glutaryl-PEG9-azide group on the N-terminal amine; hSer = N[C@@H](CCO)C(=O)O; Nle = CCCC[C@H](N)C(=O)O
quantity: EC50 pSTAT5, CD8 Naive (pM)
Give bare numbers, in pM.

These solved cases illustrate the format of a correct answer.
CMP-200, IL-7 syntein missing C2-C92 disulphide bond, N-terminus with glutaric acid and azido-PEG (ligand, disulfide 34-129, 47-141, also called CMP-200-001) {glutaryl‑PEG9‑azide}-DSDIEGKDGKQYESVL[Nle]VSIDQLLDS[Nle]KEIGSNCL[hSer]NEFNFFKRHICDANKEG[Nle]FLFRAARKLRQFLK[Nle]NSTGDF[hSer]LHLLKVSEGTTILLNSTGQVKGRKPAALGEAQPTKSL[hSer]ENKSLKEQKKLNDLCFLKRLLQEIKTCWNKIL[Nle]GTKEH-NH2 : 30
CMP-108, synthetic IL-7 of SEQ ID NO: 3 with glutaryl-PEG9-azide at the N-terminus (ligand, disulfide 34-129, 47-141, 2-92, The suffix is not explained; also called synthetic IL-7, WT with an N-terminal conjugation handle) {glutaryl‑PEG9‑azide}-DCDIEGKDGKQYESVL[Nle]VSIDQLLDS[Nle]KEIGSNCL[hSer]NEFNFFKRHICDANKEG[Nle]FLFRAARKLRQFLK[Nle]NSTGDF[hSer]LHLLKVSEGTTILLNCTGQVKGRKPAALGEAQPTKSL[hSer]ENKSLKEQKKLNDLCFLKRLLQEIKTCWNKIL[Nle]GTKEH-NH2 : 8
CMP-117, recombinant IL-7 Q11F with His-tag (ligand) DCDIEGKDGKFYESVLMVSIDQLLDSMKEIGSNCLNNEFNFFKRHICDANKEGMFLFRAARKLRQFLKMNSTGDFDLHLLKVSEGTTILLNCTGQVKGRKPAALGEAQPTKSLEENKSLKEQKKLNDLCFLKRLLQEIKTCWNKILMGTKEHVDHHHHHH : 1
CMP-110, synthetic IL-7 G85N of SEQ ID NO: 7 with glutaryl-PEG9-azide at the N-terminus (ligand, disulfide 34-129, 47-141, 2-92, The suffix is not explained; also called CMP-110-001) {glutaryl‑PEG9‑azide}-DCDIEGKDGKQYESVL[Nle]VSIDQLLDS[Nle]KEIGSNCL[hSer]NEFNFFKRHICDANKEG[Nle]FLFRAARKLRQFLK[Nle]NSTGDF[hSer]LHLLKVSENTTILLNCTGQVKGRKPAALGEAQPTKSL[hSer]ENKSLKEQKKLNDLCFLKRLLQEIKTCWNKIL[Nle]GTKEH-NH2 : 50

Would you kindly look at the next entry?
Consider the binder shown here: CMP-113, synthetic IL-7 C2A, C92A of SEQ ID NO: 10 with glutaryl-PEG9-azide at the N-terminus (ligand, ends and bridges not checked) {glutaryl‑PEG9‑azide}-DADIEGKDGKQYESVL[Nle]VSIDQLLDS[Nle]KEIGSNCL[hSer]NEFNFFKRHICDANKEG[Nle]FLFRAARKLRQFLK[Nle]NSTGDF[hSer]LHLLKVSEGTTILLNATGQVKGRKPAALGEAQPTKSL[hSer]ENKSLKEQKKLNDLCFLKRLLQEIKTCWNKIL[Nle]GTKEH What is its recorded EC50 pSTAT5, CD8 Naive? 50

All values here come from patent US20240424127A1.
